Attribution: patent US7713994B2

- ASSAY_SYSTEM: cyclin E/CDK2 enzyme (Homo sapiens, UniProt P24941)
- Construct: made in house; host or cells: Sf9 insect cells, recombinant baculovirus
- PROTOCOL_NOTES: CDK2 ELISA kinase assay (phospho-Rb ser 795 detection)
- Assay type: biochemical
- PROTOCOL_CONDITIONS: In Vitro Enzyme Assays, read-out: CDK2 IC50
RECORDED_ENDPOINT: pIC50
A value of pIC50 is the negative decimal logarithm of a concentration given in moles per litre.

Recorded result, O=C1NC(=O)c2ccc(I)cc2/C1=C/NCc1ccc(NC(=O)c2ccccc2)c(O)c1 [Example 334] , pIC50: 5.11

Recorded result, COc1coc(CNC=C2C(=O)NC(=O)c3ccc(Br)cc32)cc1=O [Example 316] , pIC50: 4.77

Recorded result, CN1CCN(c2ccc(N/C=C3\C(=O)NC(=O)c4ccc(NS(=O)(=O)c5ccccc5)cc43)cc2)CC1 [Example 188] , pIC50: 4.40

Recorded result, CN(C)CCCN1CCC(c2ccc(N/C=C3\C(=O)NC(=O)c4ccc(I)cc43)cc2)CC1 [Example 425] , pIC50: 4.43

Recorded result, O=C1NC(=O)c2ccc(I)cc2/C1=C/Nc1ccc(CN2CCC[C@@H]2CO)cc1 [Example 368] , pIC50: 4.52
